experiment: acute oral toxicity (LD50) in mice; settings: mouse, in vivo, mice (NRM1)
observable: LD50

Identify the reported LD50 for the following entry. OCC(CO)N[C@H]1C[C@](O)(CO)[C@@H](O)[C@H](O)[C@H]1O
14700 to 21500 mg/kg

---

experiment: acute oral toxicity (LD50) in rats; conditions: rat, in vivo, rats (Wistar)
observable: LD50

Dear colleague, please send me the reported LD50 for OCC(CO)N[C@H]1C[C@](O)(CO)[C@@H](O)[C@H](O)[C@H]1O [voglibose] when you can.
~20000 mg/kg
